Measured GI50 accompanies every entry in the list below.
Tested on: DMS-114
Test: NCI tumour cell line growth inhibition, 48 h
Active and inactive are the calls of the source. No stated cut-off is given here; in the data, active = GI50 up to about 1.1 µM and inactive = higher.

                                   compound      recorded_result
0  COc1cc(C2Oc3cc(-c4oc5cc(O)cc(O)c5c(=O)c4O)ccc3OC2CO)ccc1O (stereo not given) [DEHYDROSILYLBIN]   9.86 µM (inactive)
1  c1cc2[se][se]c3c4cccc5[se][se]c(c(c1)c23)c54  > 100 µM (inactive)
2  NNC(=O)C(=O)N/N=C(\CCC(=O)Nc1ccc(Cl)cc1)Cc1nc2ccccc2s1   19.1 µM (inactive)

[Q] Entry under review: c1ccc2c(c1)CCc1c(-c3ccncc3)n[nH]c1-2 . Reported GI50?
[A] 17.2 µM (inactive)

[Q] Entry under review: COC(=O)C1Cc2c([nH]c3ccccc23)C(c2ccccc2O)N1Cc1ccccc1 (stereo not given) . Reported GI50?
[A] 19.8 µM (inactive)

[Q] Entry under review: NC(=O)c1ccc([N+](=O)[O-])cc1 . Reported GI50?
[A] > 100 µM (inactive)

[Q] Entry under review: CC(C)CC(N)C(=O)OCN1C(=O)C2C3C=CC(C2C1=O)C1C2C(=O)N(COC(=O)C(N)CC(C)C)C(=O)C2C31 (stereo not given) . Reported GI50?
[A] > 62.1 µM (inactive)

[Q] Entry under review: Cn1nc(-c2ccccc2)c(C(=O)/C=C/c2ccc(F)cc2)c(N2CCCC2)c1=O . Reported GI50?
[A] 11.5 µM (inactive)

[Q] Entry under review: O=C(O)C1CCC(=O)N1C(=O)COc1cc(Cl)c(Cl)cc1Cl (stereo not given) . Reported GI50?
[A] > 100 µM (inactive)

[Q] Entry under review: O=C(CC(=O)N1N=C(n2ccc3ccccc32)CC1c1ccccc1)Nc1ccc(Cl)cc1 (stereo not given) . Reported GI50?
[A] > 100 µM (inactive)
